Exercise: state measured relative viability for each of the compounds provided.
# System: HCC-78
# experiment: relative viability (nuclei count vs DMSO), 5 days (fraction); higher = more cells survive
# condition description: first compound 0.03162 µM
Answers are plain numbers.

Examples with their reported relative viability follow.
Q. Fill blank: measured relative viability of the compound CC(C)Oc1cc(Nc2nc(N[C@@H](C)c3ccc(F)cn3)ncc2Cl)n[nH]1 [AZ23] + Cc1cc(Nc2cc(N3CCN(C)CC3)nc(Sc3ccc(NC(=O)C4CC4)cc3)n2)n[nH]1 [Tozasertib] (partner 0.1 µM) is ____.
A. 0.482

Q. Moving on to CC(C)Oc1cc(Nc2nc(N[C@@H](C)c3ccc(F)cn3)ncc2Cl)n[nH]1 [AZ23] + O=C(c1cc(Cc2n[nH]c(=O)c3ccccc23)ccc1F)N1CCN(C(=O)C2CC2)CC1 [Olaparib] (partner 8 µM)
A. 0.834

Q. And then CC(C)Oc1cc(Nc2nc(N[C@@H](C)c3ccc(F)cn3)ncc2Cl)n[nH]1 [AZ23] + C[C@@H](Oc1cc(-c2cnn(C3CCNCC3)c2)cnc1N)c1c(Cl)ccc(F)c1Cl [Crizotinib] (partner 1 µM) , what is it?
A. 0.39

Q. Do the same for CC(C)Oc1cc(Nc2nc(N[C@@H](C)c3ccc(F)cn3)ncc2Cl)n[nH]1 [AZ23] + Cc1nc(Nc2ncc(C(=O)Nc3c(C)cccc3Cl)s2)cc(N2CCN(CCO)CC2)n1 [Dasatinib] (partner 0.075 µM) please
A. 0.381

---
Q. Can you look up the measured relative viability of CC(C)Oc1cc(Nc2nc(N[C@@H](C)c3ccc(F)cn3)ncc2Cl)n[nH]1 [AZ23] + C[C@]1(O)C[C@@H](c2nc(-c3ccc4ccc(-c5ccccc5)nc4c3)c3c(N)nccn32)C1 [Linsitinib] (partner 1 µM) for me?
A. 0.431

* * *

# Tested on: EKVX
# experiment: relative viability (nuclei count vs DMSO), 5 days (fraction); higher = more cells survive
# condition description: first compound 4 µM
Task for the reader: assign each of the following compounds its reported relative viability.
Answers are plain numbers.

Q. Requested read-out: relative viability. Entry: C[C@@H]1CN(CC(=O)Nc2ccc3c(c2)Cc2cccc(-c4cc(=O)cc(N5CCOCC5)o4)c2S3)C[C@H](C)O1 + CC(C)C[C@H](NC(=O)[C@H](Cc1ccccc1)NC(=O)c1cnccn1)B(O)O [Bortezomib] (partner 0.002 µM)
A. 0.705

Q. Quick one: COc1cc(N2CCC(C(N)=O)CC2)ccc1Nc1nc(N)c(Cl)c(Nc2ccccc2S(=O)(=O)C(C)C)n1 [HG-5-88-01] + CC(=O)c1c(C)c2cnc(Nc3ccc(N4CCNCC4)cn3)nc2n(C2CCCC2)c1=O [Palbociclib] (partner 0.5 µM)
A. 0.293

Q. Entry to check: C[C@@H]1CN(CC(=O)Nc2ccc3c(c2)Cc2cccc(-c4cc(=O)cc(N5CCOCC5)o4)c2S3)C[C@H](C)O1 + CC1(C)CCC(c2ccc(Cl)cc2)=C(CN2CCN(c3ccc(C(=O)NS(=O)(=O)c4ccc(N[C@H](CCN5CCOCC5)CSc5ccccc5)c(S(=O)(=O)C(F)(F)F)c4)cc3)CC2)C1 [Navitoclax] (partner 0.5 µM)
A. 0.812

Continuing:
Q. Consider the compound shown here: Clc1ccc(Nc2nnc(Cc3ccncc3)c3ccccc23)cc1 [Vatalanib] + CS(=O)(=O)N1CCN(Cc2cc3nc(-c4cccc5[nH]ncc45)nc(N4CCOCC4)c3s2)CC1 [Pictilisib] (partner 1 µM) What is its recorded relative viability?
A. 0.396
